Hi there, I'd appreciate the recorded GLP-1R pEC 50 for every entry that follows.
Experimental system: human GLP-1 receptor (GLP-1R) (human, UniProt P43220 24-463)
Sequence (P43220 24-463): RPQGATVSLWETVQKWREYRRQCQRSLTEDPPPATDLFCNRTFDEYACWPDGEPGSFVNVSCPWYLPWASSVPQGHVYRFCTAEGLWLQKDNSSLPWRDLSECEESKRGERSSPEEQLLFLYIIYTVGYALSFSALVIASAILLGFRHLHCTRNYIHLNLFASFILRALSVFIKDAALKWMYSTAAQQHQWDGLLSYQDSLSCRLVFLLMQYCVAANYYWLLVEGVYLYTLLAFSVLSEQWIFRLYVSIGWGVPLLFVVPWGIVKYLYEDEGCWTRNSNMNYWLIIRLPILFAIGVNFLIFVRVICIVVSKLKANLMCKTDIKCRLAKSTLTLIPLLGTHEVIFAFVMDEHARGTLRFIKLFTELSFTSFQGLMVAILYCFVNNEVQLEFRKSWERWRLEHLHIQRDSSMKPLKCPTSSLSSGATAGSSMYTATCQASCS
Assay method text: cell-based or functional assay
Where no end group is shown, it is not given here. [ ]: non-standard residue; d: D form. Formula III = not defined here; Aib = CC(C)(N)C(=O)O
Hey, just the number and the unit after it is fine.

Entry under review: YSHGTFTSDYSKYLD[Aib]KRAQK(Formula III)FVIWLEDEPSSGAPPPS-OH (reading uncertain) [Compound B30] . Reported GLP-1R pEC 50?
7 pEC50

Entry under review: YSQGTFTSDYSKYLDAARAQEFVKWLEDEPKSK(Formula III)SPPPS-NH2 (reading uncertain) [Compound B37] . Reported GLP-1R pEC 50?
6.2 pEC50

Entry under review: YSHGTFTSDK(Formula III)SKYLD[Aib]KSAQEFV[Aib]WLEDEPSSGAPPPS-OH (reading uncertain) [Compound B16] . Reported GLP-1R pEC 50?
8.3 pEC50
